biological target: CYP1A2 (Homo sapiens, UniProt P05177); experiment: Fluorometric cytochrome P450 inhibition assay; assay type: in vitro ADME; details: tested from 0.1 µM to 10 µM, 37°C, read-out: Cytochrome P450 subtypes µM inhibition (estimated IC50) CYP1A2
Sequence (P05177 whole entry): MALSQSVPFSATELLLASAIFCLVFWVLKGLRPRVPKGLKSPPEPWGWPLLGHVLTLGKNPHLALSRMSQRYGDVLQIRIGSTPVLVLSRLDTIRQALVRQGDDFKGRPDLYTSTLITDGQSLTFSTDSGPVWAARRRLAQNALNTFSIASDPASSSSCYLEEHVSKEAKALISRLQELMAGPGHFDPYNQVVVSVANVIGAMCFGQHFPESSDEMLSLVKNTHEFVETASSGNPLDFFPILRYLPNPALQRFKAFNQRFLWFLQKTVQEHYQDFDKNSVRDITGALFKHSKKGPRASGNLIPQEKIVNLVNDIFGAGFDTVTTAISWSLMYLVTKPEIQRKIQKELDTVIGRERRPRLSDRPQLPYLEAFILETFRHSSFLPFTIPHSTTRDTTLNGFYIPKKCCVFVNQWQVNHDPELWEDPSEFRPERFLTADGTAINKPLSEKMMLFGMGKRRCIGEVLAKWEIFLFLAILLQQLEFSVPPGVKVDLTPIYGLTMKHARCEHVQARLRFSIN
Property Measured: IC50

Q: Give IC50 for O=C(Nc1ccc(Cl)cc1)c1ccc(-c2cccc3cnccc23)[n+]([O-])c1 [Example V405] tested on CYP1A2 (Homo sapiens, UniProt P05177).
Result: > 10 µM

----------
target: UniProtKB P11712; experiment: Fluorometric cytochrome P450 inhibition assay; assay type: in vitro ADME; conditions: tested from 0.1 µM to 10 µM, 37°C, read-out: Cytochrome P450 subtypes µM inhibition (estimated IC50) CYP2C9
Sequence (P11712 whole entry): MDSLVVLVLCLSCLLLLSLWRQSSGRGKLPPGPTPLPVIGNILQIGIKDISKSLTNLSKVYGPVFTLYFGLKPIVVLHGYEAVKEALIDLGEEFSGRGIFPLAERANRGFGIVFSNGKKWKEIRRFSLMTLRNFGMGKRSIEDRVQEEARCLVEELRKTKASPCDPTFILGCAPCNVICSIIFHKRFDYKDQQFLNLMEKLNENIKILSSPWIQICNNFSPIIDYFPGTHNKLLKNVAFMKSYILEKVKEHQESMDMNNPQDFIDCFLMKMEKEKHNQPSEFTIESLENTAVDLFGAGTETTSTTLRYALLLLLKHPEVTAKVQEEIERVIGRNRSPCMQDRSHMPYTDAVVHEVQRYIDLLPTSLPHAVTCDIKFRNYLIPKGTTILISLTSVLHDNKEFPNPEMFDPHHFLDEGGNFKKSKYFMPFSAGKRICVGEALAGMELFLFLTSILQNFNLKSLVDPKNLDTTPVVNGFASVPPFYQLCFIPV
Property Measured: IC50

Q: Provide IC50, recorded with UniProtKB P11712, of `O=C(Nc1ccc(Cl)cc1)c1ccc(-c2cccc3cnccc23)[n+]([O-])c1`
Result: > 10 µM
